Molecular target: T1, histidine-tagged human SORT1 (R&D Systems) (human, UniProt Q99523 78-755)
T1 construct: Bought recombinant protein; also called His-tagged human SORT1; not shown: histidine tag
T1 sequence: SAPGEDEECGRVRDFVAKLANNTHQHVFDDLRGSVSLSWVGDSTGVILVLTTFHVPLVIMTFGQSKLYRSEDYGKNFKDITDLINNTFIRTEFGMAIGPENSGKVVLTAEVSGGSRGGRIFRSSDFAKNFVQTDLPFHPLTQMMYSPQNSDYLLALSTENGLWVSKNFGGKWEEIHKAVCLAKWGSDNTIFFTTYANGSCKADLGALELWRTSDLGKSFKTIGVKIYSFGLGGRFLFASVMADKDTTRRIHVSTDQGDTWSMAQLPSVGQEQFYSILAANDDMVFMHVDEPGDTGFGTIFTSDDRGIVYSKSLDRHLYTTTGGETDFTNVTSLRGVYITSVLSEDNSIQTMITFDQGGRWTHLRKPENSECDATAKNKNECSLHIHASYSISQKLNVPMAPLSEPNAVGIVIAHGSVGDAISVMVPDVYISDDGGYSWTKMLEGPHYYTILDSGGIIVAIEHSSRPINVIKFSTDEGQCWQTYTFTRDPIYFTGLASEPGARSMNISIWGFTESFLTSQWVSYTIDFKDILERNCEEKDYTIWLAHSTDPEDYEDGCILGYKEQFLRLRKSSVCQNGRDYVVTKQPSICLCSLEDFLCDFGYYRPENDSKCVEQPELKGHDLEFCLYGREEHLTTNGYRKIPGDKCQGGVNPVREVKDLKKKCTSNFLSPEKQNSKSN
Assay: BLI (Octet RED96), antibody captured on anti-human IgG Fc sensor, 20 nM His-tagged human SORT1, 1:1 fit

Binder	Kd
S-60-15.5 [N33D] (antibody, V domains shown, also called completely deamidated version of S-60-15) VH: QVQLQESGPGLVKPSETLSLTCAVSGYSISSGYYWGWIRQPPGKGLEWIGTIYHSGSTYYNPSLKSRVTISVDTSKNQFSLKLSSVTAADTAVYYCARQGSIKQGYYGMDVWGQGTTVTVSS VL: DIVMTQSPLSLPVTPGEPASISCRSSQSLLRSDGYNYLDWYLQKPGQSPQLLIYLGSNRASGVPDRFSGSGSGTDFTLKISRAEAEDVGVYYCMQQQEAPLTFGGGTKVEIKR	1 nM
S-60-15.9 [N33Y] (antibody, human IgG1, kappa, L234A L235A, V domains shown, huIgG1 LALAPS) VH: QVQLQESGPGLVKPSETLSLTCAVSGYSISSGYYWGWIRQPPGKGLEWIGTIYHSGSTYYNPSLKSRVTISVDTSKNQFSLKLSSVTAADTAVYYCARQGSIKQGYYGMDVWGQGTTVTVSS VL: DIVMTQSPLSLPVTPGEPASISCRSSQSLLRSYGYNYLDWYLQKPGQSPQLLIYLGSNRASGVPDRFSGSGSGTDFTLKISRAEAEDVGVYYCMQQQEAPLTFGGGTKVEIKR	1.28 nM
S-60-15.3 [N33G] (antibody, human IgG1, kappa, L234A L235A, V domains shown, huIgG1 LALAPS) VH: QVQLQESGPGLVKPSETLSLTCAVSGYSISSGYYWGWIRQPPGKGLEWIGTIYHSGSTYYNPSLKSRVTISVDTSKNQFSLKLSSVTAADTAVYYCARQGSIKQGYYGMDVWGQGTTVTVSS VL: DIVMTQSPLSLPVTPGEPASISCRSSQSLLRSGGYNYLDWYLQKPGQSPQLLIYLGSNRASGVPDRFSGSGSGTDFTLKISRAEAEDVGVYYCMQQQEAPLTFGGGTKVEIKR	0.825 nM
S-60-15.2 [N33S] (antibody, human IgG1, kappa, L234A L235A, V domains shown, huIgG1 LALAPS) VH: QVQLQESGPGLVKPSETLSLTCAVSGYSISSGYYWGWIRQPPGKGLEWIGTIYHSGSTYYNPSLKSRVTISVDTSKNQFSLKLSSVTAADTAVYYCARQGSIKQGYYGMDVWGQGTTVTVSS VL: DIVMTQSPLSLPVTPGEPASISCRSSQSLLRSSGYNYLDWYLQKPGQSPQLLIYLGSNRASGVPDRFSGSGSGTDFTLKISRAEAEDVGVYYCMQQQEAPLTFGGGTKVEIKR	0.44 nM
S-60-15.15 [N33A] (antibody, human IgG1, kappa, L234A L235A, V domains shown, huIgG1 LALAPS) VH: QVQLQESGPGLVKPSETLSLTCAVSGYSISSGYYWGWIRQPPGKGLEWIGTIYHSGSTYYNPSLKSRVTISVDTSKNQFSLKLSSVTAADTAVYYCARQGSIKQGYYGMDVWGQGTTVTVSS VL: DIVMTQSPLSLPVTPGEPASISCRSSQSLLRSAGYNYLDWYLQKPGQSPQLLIYLGSNRASGVPDRFSGSGSGTDFTLKISRAEAEDVGVYYCMQQQEAPLTFGGGTKVEIKR	0.625 nM
S-60-15.11 [N33W] (antibody, human IgG1, kappa, L234A L235A, V domains shown, huIgG1 LALAPS) VH: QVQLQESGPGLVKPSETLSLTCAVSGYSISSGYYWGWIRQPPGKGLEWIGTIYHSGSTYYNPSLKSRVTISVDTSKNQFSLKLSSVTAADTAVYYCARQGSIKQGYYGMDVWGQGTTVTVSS VL: DIVMTQSPLSLPVTPGEPASISCRSSQSLLRSWGYNYLDWYLQKPGQSPQLLIYLGSNRASGVPDRFSGSGSGTDFTLKISRAEAEDVGVYYCMQQQEAPLTFGGGTKVEIKR	0.96 nM
S-60-15.14 [N33V] (antibody, human IgG1, kappa, L234A L235A, V domains shown, huIgG1 LALAPS) VH: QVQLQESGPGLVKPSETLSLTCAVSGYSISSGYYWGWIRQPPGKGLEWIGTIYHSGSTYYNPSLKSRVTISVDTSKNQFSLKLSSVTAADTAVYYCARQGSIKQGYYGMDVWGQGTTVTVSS VL: DIVMTQSPLSLPVTPGEPASISCRSSQSLLRSVGYNYLDWYLQKPGQSPQLLIYLGSNRASGVPDRFSGSGSGTDFTLKISRAEAEDVGVYYCMQQQEAPLTFGGGTKVEIKR	0.69 nM
S-60-15.10 [N33E] (antibody, human IgG1, kappa, L234A L235A, V domains shown, huIgG1 LALAPS) VH: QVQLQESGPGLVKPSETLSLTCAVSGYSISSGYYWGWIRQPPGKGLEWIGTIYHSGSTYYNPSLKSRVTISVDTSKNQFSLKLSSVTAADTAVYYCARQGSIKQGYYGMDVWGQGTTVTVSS VL: DIVMTQSPLSLPVTPGEPASISCRSSQSLLRSEGYNYLDWYLQKPGQSPQLLIYLGSNRASGVPDRFSGSGSGTDFTLKISRAEAEDVGVYYCMQQQEAPLTFGGGTKVEIKR	2.01 nM
S-60-15.4 [N33R] (antibody, human IgG1, kappa, L234A L235A, V domains shown, huIgG1 LALAPS) VH: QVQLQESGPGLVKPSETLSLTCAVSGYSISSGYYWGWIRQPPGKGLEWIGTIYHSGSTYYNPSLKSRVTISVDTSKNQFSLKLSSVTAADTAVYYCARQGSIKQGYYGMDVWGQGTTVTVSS VL: DIVMTQSPLSLPVTPGEPASISCRSSQSLLRSRGYNYLDWYLQKPGQSPQLLIYLGSNRASGVPDRFSGSGSGTDFTLKISRAEAEDVGVYYCMQQQEAPLTFGGGTKVEIKR	0.88 nM
S-60-15.17 [N33L] (antibody, human IgG1, kappa, L234A L235A, V domains shown, huIgG1 LALAPS) VH: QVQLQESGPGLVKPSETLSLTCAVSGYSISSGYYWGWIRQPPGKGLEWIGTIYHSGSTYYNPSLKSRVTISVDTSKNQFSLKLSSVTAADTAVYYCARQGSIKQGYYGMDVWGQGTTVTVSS VL: DIVMTQSPLSLPVTPGEPASISCRSSQSLLRSLGYNYLDWYLQKPGQSPQLLIYLGSNRASGVPDRFSGSGSGTDFTLKISRAEAEDVGVYYCMQQQEAPLTFGGGTKVEIKR	1.03 nM
